IC50 values for the compounds below.
- Target or test system: UniProt:P05186
- Sequence (P05186 18-524): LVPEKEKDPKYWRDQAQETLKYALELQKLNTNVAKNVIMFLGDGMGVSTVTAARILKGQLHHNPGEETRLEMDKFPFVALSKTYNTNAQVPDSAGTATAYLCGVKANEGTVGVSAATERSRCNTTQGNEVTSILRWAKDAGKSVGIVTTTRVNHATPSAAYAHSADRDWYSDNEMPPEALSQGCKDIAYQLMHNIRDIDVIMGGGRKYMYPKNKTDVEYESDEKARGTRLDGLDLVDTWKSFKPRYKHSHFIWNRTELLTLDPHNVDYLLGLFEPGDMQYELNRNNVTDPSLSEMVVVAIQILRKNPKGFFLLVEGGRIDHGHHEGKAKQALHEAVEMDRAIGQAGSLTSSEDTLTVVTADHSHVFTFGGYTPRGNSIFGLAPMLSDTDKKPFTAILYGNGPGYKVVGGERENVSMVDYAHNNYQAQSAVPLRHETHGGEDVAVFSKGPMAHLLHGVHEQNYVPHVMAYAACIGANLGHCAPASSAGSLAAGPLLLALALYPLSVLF
- Assay protocol: Inhibitory test of TNAP activity (pNPP substrate, p-nitrophenol production)
- Assay context: human TNAP from transfected COS1 culture supernatant, 60 minutes at room temperature
Give a bare numeral; the unit nM is implied.

The examples below pair each entry with its known result.
[[record]]
smiles_string = "O=C1c2cc(NS(=O)(=O)c3cc(Cl)ccc3OC(F)(F)F)cnc2OC[C@H]2[C@@H](O)CCN12"
target_or_test_system = "UniProt:P05186"
units_label = "nM"
value_measured = 0.4

[[record]]
smiles_string = "O=C1c2cc(NS(=O)(=O)c3cc(Cl)ccc3OC(F)(F)F)cnc2OC[C@H]2C[C@H](O)CN12"
target_or_test_system = "UniProt:P05186"
units_label = "nM"
value_measured = 0.9

[[record]]
smiles_string = "COc1ccc(Cl)cc1S(=O)(=O)Nc1cnc2c(c1)CN1C(=O)[C@@H](O)C[C@H]1CO2"
target_or_test_system = "UniProt:P05186"
units_label = "nM"
value_measured = 1.1

[[record]]
smiles_string = "COc1ncc(Cl)cc1S(=O)(=O)Nc1cnc2c(c1)-c1ccnn1[C@@H](C)CO2"
target_or_test_system = "UniProt:P05186"
units_label = "nM"
value_measured = 3

[[record]]
smiles_string = "COc1ccc(F)cc1S(=O)(=O)Nc1cnc2c(c1)C(=O)N1C[C@@H](O)C[C@@H]1CO2"
target_or_test_system = "UniProt:P05186"
units_label = "nM"
value_measured = 1.2


# evaluate next
Quick one: IC50 of COc1ccc(Cl)cc1S(=O)(=O)Nc1cnc2c(c1)C(=O)N1CCC[C@@H]1CO2 ?
1.2

* * *

In this section, each of the compounds is paired with its reported Plasma ALP inhibition (6 h ave. inhibition %).
- Tested on: plasma ALP (80-90% containing TNAP)
- Assay protocol: Inhibitory test of plasma TNAP activity in B6 mouse
- Type: in vivo
- Assay context: oral, dose 3 mg/kg, average 0-6 h after administration
Numbers only; they are read as %.

Past entries and their recorded results:
[[record]]
smiles_string = "CCOc1ccc(F)cc1S(=O)(=O)[N-]c1cnc2c(c1)-c1ccnn1CCO2.[K+]"
target_or_test_system = "plasma ALP (80-90% containing TNAP)"
units_label = "%"
value_measured = 43.3

[[record]]
smiles_string = "CCOc1ncc(F)cc1S(=O)(=O)[N-]c1cnc2c(c1)-c1ccnn1[C@@H](C)CO2.[K+]"
target_or_test_system = "plasma ALP (80-90% containing TNAP)"
units_label = "%"
value_measured = 55.5


Reported Plasma ALP inhibition (6 h ave. inhibition %) for plasma ALP (80-90% containing TNAP), given COc1ncc(Cl)cc1S(=O)(=O)[N-]c1cnc2c(c1)-c1ccnn1[C@@H](C)CO2.[K+] ?
28.4

# value lookup — system plasma ALP (80-90% containing TNAP), readout Plasma ALP inhibition (6 h ave. inhibition %), item CCOc1ncc(F)cc1S(=O)(=O)[N-]c1cnc2c(c1)-c1ccnn1CCO2.[K+]
61.4
